Experimental Target: Activated human plasma kallikrein (Enzyme Research Laboratories, HPKa 1303) (human, UniProt P03952 20-638)
Sequence (P03952 20-638 limits assumed): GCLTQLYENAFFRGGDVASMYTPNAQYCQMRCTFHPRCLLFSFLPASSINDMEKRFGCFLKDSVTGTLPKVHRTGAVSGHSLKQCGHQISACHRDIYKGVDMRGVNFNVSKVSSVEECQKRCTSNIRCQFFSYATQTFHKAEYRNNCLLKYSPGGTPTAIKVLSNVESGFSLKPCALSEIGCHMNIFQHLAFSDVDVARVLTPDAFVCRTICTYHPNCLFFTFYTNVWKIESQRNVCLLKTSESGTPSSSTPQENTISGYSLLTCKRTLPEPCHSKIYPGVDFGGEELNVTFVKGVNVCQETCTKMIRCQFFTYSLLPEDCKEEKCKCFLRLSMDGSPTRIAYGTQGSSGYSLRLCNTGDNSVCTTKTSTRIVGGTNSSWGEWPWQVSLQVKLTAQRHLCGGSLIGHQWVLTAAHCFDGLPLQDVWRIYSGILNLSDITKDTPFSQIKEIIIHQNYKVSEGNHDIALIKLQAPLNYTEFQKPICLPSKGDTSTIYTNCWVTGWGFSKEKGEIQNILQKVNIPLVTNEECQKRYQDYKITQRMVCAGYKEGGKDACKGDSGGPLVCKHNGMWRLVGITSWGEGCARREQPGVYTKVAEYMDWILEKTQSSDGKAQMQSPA
Method Description: cell-based or functional assay
Bridge positions count the residues as written; N and C are the ends. Square brackets hold non-standard residues; d marks the D form. Ends that are not written are not given here. mXylyl = xylyl linker from dibromoxylene joining the two cysteines; des‑NH2 = missing amino-terminal amine group; NMeR = CN[C@@H](CCCNC(=N)N)C(=O)O; BODIPY‑TMR = fluorescent label; dPhg = N[C@@H](C(=O)O)c1ccccc1; Chg = N[C@H](C(=O)O)C1CCCCC1; Phg = N[C@H](C(=O)O)c1ccccc1; Tle = CC(C)(C)[C@H](N)C(=O)O; αMeP = C[C@@]1(C(=O)O)CCCN1; Ac5c = NC1(C(=O)O)CCCC1; Aib = CC(C)(N)C(=O)O; Mpa = O=C(O)CCS
Measurement Label: Avg. IC50 (nM)
Give bare numbers, in nM.

Binder | Unit Tag | Avg. IC50
{des‑NH2}-CP[Phg]CR[Tle]-NH2 (linker 1-4 via mXylyl) [R2188] | nM | 3.4
{BODIPY‑TMR}-MCESICRV-NH2 (linker 2-6 via mXylyl) [R2193] | nM | 205
[Mpa][Aib]A[Chg]CR[Tle]LRYSE-NH2 (linker 1-5 via mXylyl) [R2190] | nM | 0.511
[Mpa]SICRV-NH2 (linker 1-4 via oXylyl) [R2161] | nM | 2230
[Mpa][Ac5c][Chg]CK[Tle]-NH2 (linker 1-4 via mXylyl) [R2174] | nM | 870
{des‑NH2}-C[αMeP][dPhg]CR[Tle]-NH2 (linker 1-4 via mXylyl) [R2200] | nM | 470
{des‑NH2}-CP[αMePhg]CR[Tle]-NH2 (linker 1-4 via mXylyl) [R2192] | nM | 851
{des‑NH2}-CP[Chg]CR-{(S)‑2,2‑dimethyl‑1‑(pyridin-2-yl)propan‑1‑amine} (linker 1-4 via mXylyl) [R2196] | nM | 35.6
MCESIC[NMeR]V-NH2 (linker 2-6 via mXylyl) [R2163] | nM | 1960
[Mpa]SICRV-NH2 (linker 1-4 via mXylyl) [R2155] | nM | 66.3

Kindly give each listed record's Avg. IC50.
1. [Mpa][Aib]A[Chg]CR[Tle]LRYC-NH2 (linker 1-5-11 via 1,3,5‑Xylyl) [R2158]
2. {des‑NH2}-C[Ac5c]A[Phg]CR[Tle]-NH2 (linker 1-5 via mXylyl) [R2150]
3. {des‑NH2}-C[αMeP][Chg]CR[Tle]-NH2 (linker 1-4 via mXylyl) [R2180]
4. {des‑NH2}-CP[dPhg]CR[Tle]L[NMeR]YSE-NH2 (linker 1-4 via mXylyl) [R2217]

[reply]
2340
0.764
6.8
114
